System: 192522-019-R-J2-PDC complex tumor spheroid viability;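 also: spheroids exposed to drugs for seven days before reading; 100% = DMSO vehicle control viability in luminescence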
Experiment: Anticancer human tumor 192522-019-R-J2-PDC patient-derived colon adenocarcinoma cell line growth inhibition [POLQ]
Details: second compound 0.316 µM; first compound 0.1 µM; stronger effect = lower value

{"compound": "COc1cccc(OCCCN)c1-c1cc(Nc2cnc(C#N)cn2)n[nH]1 + COC1C(OC(N)=O)C(O)C(Oc2ccc3c(O)c(NC(=O)c4ccc(O)c(CC=C(C)C)c4)c(=O)oc3c2C)OC1(C)C", "viability, T/C [%]": 31.8}
{"compound": "CCc1cc2c(N3CCc4c(cc(Cn5ccnc5)cc4-c4cn(C)nc4C(F)(F)F)C3=O)ccnc2c(OC)n1 + Cc1cccc(N(C)C(=O)C2C(O)CCN2c2nc(C)cc(C(F)(F)F)c2C#N)c1", "viability, T/C [%]": 92.8}
{"compound": "COc1cc(C2c3cc4c(cc3C(OC3OC5COC(C)OC5C(O)C3O)C3COC(=O)C23)OCO4)cc(OC)c1O (configuration not stated) + COC1C(OC(N)=O)C(O)C(Oc2ccc3c(O)c(NC(=O)c4ccc(O)c(CC=C(C)C)c4)c(=O)oc3c2C)OC1(C)C", "viability, T/C [%]": 97.8}
{"compound": "O=C(Nc1ccc(O)c(NS(=O)(=O)c2ccc(F)cc2)c1)c1ccc(-c2ccccc2)cc1 + COC1C(OC(N)=O)C(O)C(Oc2ccc3c(O)c(NC(=O)c4ccc(O)c(CC=C(C)C)c4)c(=O)oc3c2C)OC1(C)C", "viability, T/C [%]": 89.6}
{"compound": "COc1ccc([C@@H](O)c2cc(-c3ncnc4cc(N5CCOCC5)ccc34)c(F)cc2Cl)nn1 + COC1C(OC(N)=O)C(O)C(Oc2ccc3c(O)c(NC(=O)c4ccc(O)c(CC=C(C)C)c4)c(=O)oc3c2C)OC1(C)C", "viability, T/C [%]": 93.2}
{"compound": "CNCc1ccc(-c2[nH]c3cc(F)cc4c3c2CCNC4=O)cc1 + Cc1cccc(N(C)C(=O)C2C(O)CCN2c2nc(C)cc(C(F)(F)F)c2C#N)c1", "viability, T/C [%]": 113}
{"compound": "C#Cc1c(F)ccc2cc(O)cc(-c3ncc4c(N5CC6CCC(C5)N6)nc(OCC56CCCN5CC(F)C6)nc4c3F)c12 (configuration not stated) + Nc1ccc(C#CCN(C(=O)Cc2ncc(C(F)(F)F)cc2C(F)(F)F)c2ccc(F)cc2)nn1", "viability, T/C [%]": 82.3}
{"compound": "CC(C)n1c(=O)n(C)c2cnc3cc(F)c(-c4ccc(OCCCN5CCCCC5)nc4)cc3c21 + Cc1cccc(N(C)C(=O)C2C(O)CCN2c2nc(C)cc(C(F)(F)F)c2C#N)c1", "viability, T/C [%]": 98.4}
{"compound": "O=c1[nH]cc(F)c(=O)[nH]1 + COC1C(OC(N)=O)C(O)C(Oc2ccc3c(O)c(NC(=O)c4ccc(O)c(CC=C(C)C)c4)c(=O)oc3c2C)OC1(C)C", "viability, T/C [%]": 82}
{"compound": "O=C(Nc1ccc(O)c(NS(=O)(=O)c2ccc(F)cc2)c1)c1ccc(-c2ccccc2)cc1 + Nc1ccc(C#CCN(C(=O)Cc2ncc(C(F)(F)F)cc2C(F)(F)F)c2ccc(F)cc2)nn1", "viability, T/C [%]": 101}
{"compound": "CC1COCCN1c1cc(C2(S(C)(=N)=O)CC2)nc(-c2ccnc3[nH]ccc23)n1 (configuration not stated) + Cc1cccc(N(C)C(=O)C2C(O)CCN2c2nc(C)cc(C(F)(F)F)c2C#N)c1", "viability, T/C [%]": 105}
{"compound": "O=C(c1cc(Cc2n[nH]c(=O)c3ccccc23)ccc1F)N1CCN(C(=O)C2CC2)CC1 + Nc1ccc(C#CCN(C(=O)Cc2ncc(C(F)(F)F)cc2C(F)(F)F)c2ccc(F)cc2)nn1", "viability, T/C [%]": 105}
{"compound": "CCc1cc2c(N3CCc4c(cc(Cn5ccnc5)cc4-c4cn(C)nc4C(F)(F)F)C3=O)cc(C)nc2c(OC)n1 + Nc1ccc(C#CCN(C(=O)Cc2ncc(C(F)(F)F)cc2C(F)(F)F)c2ccc(F)cc2)nn1", "viability, T/C [%]": 100}
{"compound": "COc1cc2cc(C(=O)CCC(=O)O)sc2cc1OC + Cc1cccc(N(C)C(=O)C2C(O)CCN2c2nc(C)cc(C(F)(F)F)c2C#N)c1", "viability, T/C [%]": 100}
{"compound": "CC1COCCN1c1cc(C2(O)CC3CCC(C2)O3)c2cnn(-c3ccn[nH]3)c2n1 (configuration not stated) + Nc1ccc(C#CCN(C(=O)Cc2ncc(C(F)(F)F)cc2C(F)(F)F)c2ccc(F)cc2)nn1", "viability, T/C [%]": 80.5}
{"compound": "CC1COCCN1c1cc(C2(S(C)(=N)=O)CC2)nc(-c2ccnc3[nH]ccc23)n1 (configuration not stated) + COC1C(OC(N)=O)C(O)C(Oc2ccc3c(O)c(NC(=O)c4ccc(O)c(CC=C(C)C)c4)c(=O)oc3c2C)OC1(C)C", "viability, T/C [%]": 99.2}
{"compound": "Cn1ncnc1[C@H]1c2n[nH]c(=O)c3cc(F)cc(c23)N[C@@H]1c1ccc(F)cc1 + Nc1ccc(C#CCN(C(=O)Cc2ncc(C(F)(F)F)cc2C(F)(F)F)c2ccc(F)cc2)nn1", "viability, T/C [%]": 102}
